- assayName: Pharmacokinetic experiment in rats, oral administration
- Type: in vivo
- details: Sprague-Dawley (SD), rat, 5 mg/kg, male SD rats, 5 mpk, plasma, read-out: t½ (converted)

| querySmiles | unitLabel | half-life |
| --- | --- | --- |
| CCc1cc(Nc2ncc(Br)c(Nc3ccc(C4CC4)cc3P(C)(C)=O)n2)c(OC)cc1N1CCC(N2CCN(C)CC2)CC1 | h | 9.1 |

###

- testSystem: EGFR Δ19del/T790M/C797S (Homo sapiens, UniProt P00533, T790M/C797S, form not given)
- Sequence (P00533 with tags, fused parts or gaps DEL746-750/T790M/C797S, form open): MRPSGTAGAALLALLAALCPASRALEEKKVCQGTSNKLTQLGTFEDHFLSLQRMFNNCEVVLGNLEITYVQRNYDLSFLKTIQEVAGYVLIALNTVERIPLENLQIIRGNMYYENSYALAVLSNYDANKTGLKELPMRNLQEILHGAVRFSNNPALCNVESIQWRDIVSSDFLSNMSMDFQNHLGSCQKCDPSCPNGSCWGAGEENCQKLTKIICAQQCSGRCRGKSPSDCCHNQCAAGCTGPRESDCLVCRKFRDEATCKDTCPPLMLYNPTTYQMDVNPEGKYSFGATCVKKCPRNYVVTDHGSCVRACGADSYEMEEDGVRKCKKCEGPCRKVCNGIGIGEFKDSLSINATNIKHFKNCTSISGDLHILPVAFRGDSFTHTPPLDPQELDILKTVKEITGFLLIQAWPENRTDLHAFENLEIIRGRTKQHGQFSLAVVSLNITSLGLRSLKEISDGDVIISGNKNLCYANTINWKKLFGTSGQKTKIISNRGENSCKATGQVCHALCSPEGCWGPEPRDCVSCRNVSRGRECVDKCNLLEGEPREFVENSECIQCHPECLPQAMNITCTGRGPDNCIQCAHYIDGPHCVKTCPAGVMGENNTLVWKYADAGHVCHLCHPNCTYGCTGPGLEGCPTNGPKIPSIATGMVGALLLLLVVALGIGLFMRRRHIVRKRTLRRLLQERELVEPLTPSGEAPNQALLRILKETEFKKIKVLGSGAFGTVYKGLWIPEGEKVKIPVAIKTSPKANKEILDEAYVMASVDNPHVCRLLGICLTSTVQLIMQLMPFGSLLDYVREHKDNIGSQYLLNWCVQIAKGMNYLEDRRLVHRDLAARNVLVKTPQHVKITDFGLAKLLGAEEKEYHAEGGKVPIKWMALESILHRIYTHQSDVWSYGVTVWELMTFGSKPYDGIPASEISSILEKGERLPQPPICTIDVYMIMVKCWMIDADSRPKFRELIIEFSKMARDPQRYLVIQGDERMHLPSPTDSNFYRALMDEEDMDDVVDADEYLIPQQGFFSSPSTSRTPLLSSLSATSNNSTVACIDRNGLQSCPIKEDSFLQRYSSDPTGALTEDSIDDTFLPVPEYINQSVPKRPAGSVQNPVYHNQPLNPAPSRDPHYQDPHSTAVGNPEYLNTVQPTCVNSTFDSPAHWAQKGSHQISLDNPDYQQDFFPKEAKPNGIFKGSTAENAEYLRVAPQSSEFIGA
- assayName: EGFR Δ19del/T790M/C797S kinase test (mobility variation analysis, Caliper EZ Reader)
- details: kinase inhibition, top concentration 300 nM
pIC50: −log10 of the molar value.
This listing pairs compounds with measured pIC50.
observedProperty: pIC50

| compound | measured |
| --- | --- |
| CCc1cc(Nc2ncc(Cl)c(Nc3ccc(C4CCCC4)cc3P(C)(C)=O)n2)c(OC)cc1N1CCC(N2CCN(C)CC2)CC1 [Compound 7] | 8.96 |
| COc1cc(N2CCC(N3CCN(C)CC3)CC2)c(C)cc1Nc1ncc(Br)c(Nc2ccc(C3CC3)cc2P(C)(C)=O)n1 [Compound 10] | 9.52 |
| COc1cc(N2CCC(N3CCN(C)CC3)CC2)c(-c2ccn(C)c2)cc1Nc1ncc(Br)c(Nc2ccc(C3CC3)cc2P(C)(C)=O)n1 [Compound 9] | 9.52 |
| CCc1cc(Nc2ncc(Br)c(Nc3ccc(C4CC4)cc3P(C)(C)=O)n2)c(OC)cc1N1CCC(N2CCN(C)CC2)CC1 [Compound 1] | 9.52 |
| CCc1cc(Nc2ncc(Br)c(Nc3ccc(N4CCOCC4)cc3P(C)(C)=O)n2)c(OC)cc1N1CCC(N2CCN(C)CC2)CC1 [Compound 8] | 9.52 |
| COc1cc(N2CCC(N3CCN(C)CC3)CC2)ccc1Nc1ncc(Cl)c(Nc2ccc(C)cc2P(C)(C)=O)n1 [Control example 1, reference compound] | 8.57 |

###

- assayName: Pharmacokinetic experiment in rats, oral administration
- Assay type: in vivo
- details: Sprague-Dawley (SD), rat, 5 mg/kg, male SD rats, 5 mpk, plasma
observedProperty: Cmax (ng/mL)

| querySmiles | measured |
| --- | --- |
| CCc1cc(Nc2ncc(Br)c(Nc3ccc(C4CC4)cc3P(C)(C)=O)n2)c(OC)cc1N1CCC(N2CCN(C)CC2)CC1 | 2100 |

Origin of values: patent US20230133169A1
